Molecular target: Calcium-dependent protein kinase 4 (Plasmodium falciparum (isolate 3D7)) (UniProt Q8IBS5)
Sequence (Q8IBS5 whole entry, looked up): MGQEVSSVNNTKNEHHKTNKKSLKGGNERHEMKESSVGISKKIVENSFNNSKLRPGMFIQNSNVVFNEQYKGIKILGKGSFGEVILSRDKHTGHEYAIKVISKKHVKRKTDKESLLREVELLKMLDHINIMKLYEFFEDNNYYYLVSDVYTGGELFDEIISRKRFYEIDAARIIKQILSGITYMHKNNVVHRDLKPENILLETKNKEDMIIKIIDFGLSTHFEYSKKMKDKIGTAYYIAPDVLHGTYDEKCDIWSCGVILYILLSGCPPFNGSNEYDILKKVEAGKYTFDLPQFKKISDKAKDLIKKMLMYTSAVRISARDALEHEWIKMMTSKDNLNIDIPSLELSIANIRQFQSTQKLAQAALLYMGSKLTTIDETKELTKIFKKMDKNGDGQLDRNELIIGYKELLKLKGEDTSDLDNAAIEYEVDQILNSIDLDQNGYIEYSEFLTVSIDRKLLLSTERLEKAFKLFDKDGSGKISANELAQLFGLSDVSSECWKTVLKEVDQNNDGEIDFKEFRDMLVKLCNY
Experiment: PfCDPK4 kinase inhibitors, biochemical, TCAMS library (AID 1159588)
Conditions: recombinant PfCDPK4, Kinase-Glo ATP depletion luminescence
Entries with a potency or affinity are not part of this list. Active and inactive are the calls of the source. The limit is not given here; nearly all actives have IC50 up to about 0.91 µM.
OBSERVED PROPERTY: outcome

                                    molecule    result
 0  COc1ccc(-c2cccc(NC(=O)c3cccc(C#N)c3)c2)cc1CN(C)CCN(C)C  inactive
 1  Cc1cnc(Nc2cccnc2)nc1Nc1ccccc1C(=O)NC(C)C  inactive
 2  CN(CCNCc1ccc(-c2cccc(-c3nc4ccccc4[nH]3)c2)cc1)S(C)(=O)=O  inactive
 3  CCN(CCCN1CCCCC1)c1cc(C)nc(Nc2ccc(C(C)C)cc2)n1  inactive
 4  O=C(/C=C/c1ccc(Cl)cc1)NCCCCCN1CCN(C(=O)Nc2ccc(Cl)c(C(F)(F)F)c2)CC1  inactive
 5  COc1ccc2c(c1)CC(C)(C)NC2CCCCCCCCC1NC(C)(C)Cc2cc(OC)ccc21 (centres undefined)  inactive
 6  COC(=O)c1ccc2nc(-c3cc(-c4cccc(-c5ccccc5)c4)cnc3N)[nH]c2c1  inactive
 7  Cc1cc(N[C@@H](Cc2ccccc2)C(=O)NCc2cccs2)nc(Nc2ccccc2)n1  inactive
 8  N#Cc1ccc2c(c1)CCN(CCC1CCC(NC(=O)/C=C/c3ccc(F)c4ccccc34)CC1)CC2 (centres undefined)  inactive
 9  CC(C)C[C@H](Nc1ccnc(NCC2CCCCC2)n1)C(=O)NCCOc1ccccc1  inactive
10  Cc1cccc2[nH]c(-c3ccc(-c4ccc(CN5CCN(CCO)CC5)cc4)s3)nc12  inactive
11  O=C(Nc1cccc(C(F)(F)F)c1)c1cccc(S(=O)(=O)NC2CCCN(CC3CCCCC3)C2)c1 (centres undefined)  inactive
12  N#CCCN1CCN(Cc2cccc(-c3ccc(-c4nc5ccc(F)cc5[nH]4)cc3)c2)CC1  inactive
13  Cc1ccoc1C(=O)Nc1cccc(-c2cccc(-c3nc4ccc(C(F)(F)F)cc4[nH]3)c2)c1  inactive
14  N#Cc1cccc(CN2CCCN(c3ccc(NC(=O)c4cccs4)cc3)CC2)c1  inactive
15  CCn1c(CN2CCN(Cc3ccccc3)CC2)nc2cc(NC(=O)c3cccs3)ccc21  inactive
16  O=C(NC1CCN(Cc2ccccc2)CC1)c1ccc(-c2nc3cc(Cl)c(F)cc3[nH]2)cc1  inactive
17  CN1CCN(CC(=O)Nc2cccc(-c3cccc(-c4nc5ccccc5[nH]4)c3)c2)CC1  inactive
18           Cc1nc(N=C(N)N)nc2cc3c(cc12)CCC3  inactive
19  O=c1cc(NCCCNCc2ccc(Cl)c(Cl)c2)[nH]c2ccc(Oc3ccccc3)cc12  inactive
20  Cc1cc(NCCC(=O)NCc2cccc(F)c2)nc(Nc2ccccc2)n1  inactive
21  COc1ccc2nccc([C@@H](O)CN3CCC(NCc4ccc5c(c4)NC(=O)CS5)CC3)c2c1  inactive
22  Clc1ccc(-c2nc3ccc(-c4ccc5nc(-c6ccc(Cl)cc6)[nH]c5c4)cc3[nH]2)cc1  inactive
23   CC(C)CCNc1nc(NCCCc2ccccc2)c2cc(O)ccc2n1  inactive
24  O=C(Nc1ccc(CCNCc2ccccc2)cc1)Nc1ccc(OC(F)(F)F)cc1  inactive
25    CCNc1cc(CCCC(=O)OCC)nc(Nc2ccc(C)cc2)n1  inactive
26  Oc1ccc2[nH]cc(C3CCN(CCCNCc4ccc(-c5ccccc5)cc4)CC3)c2c1  inactive
27  C=CCN1Cc2c(O)cccc2C(c2ccc(O)c(O)c2)C1 (centres undefined)  inactive
28  COc1ccc2nc(-c3cccc(C)n3)nc(Nc3ccncc3)c2c1  inactive
29  O=C(c1cc(C(=O)Nc2ccccc2)c(=O)n(-c2ccccc2)c1)c1cc(Cl)ccc1O  inactive
30  COc1cc(C(C)C)ccc1N1CCN(CCCCNC(=O)c2ccc(NC(=O)c3ccc(Cl)cc3)cc2)CC1  inactive
31  Cc1cccc(NC(=O)Nc2cccc(-c3ccc(-c4nc5ccc(C(F)(F)F)cc5[nH]4)cc3)c2)c1  inactive
32  CC(C)(C)c1ccc(/C=C/C(=O)NCCCCCN2CCC(c3c[nH]c4ccccc34)CC2)cc1  inactive
33  N#Cc1ccc(C(=O)NC2CCN(CCCCCNC(=O)/C=C/c3ccc(Cl)c(Cl)c3)CC2)cc1  inactive
34  CC(C)C(=O)NC(c1cccs1)c1cc(Cl)c2cccnc2c1O (centres undefined)  inactive
35  CCOc1cc(C(=O)NCCCN2CCCCC2C)ccc1-c1nc2ccc(Cl)cc2[nH]1 (centres undefined)  inactive
36  COc1cc(Nc2nccn3c(-c4ccsc4)cnc23)cc(OC)c1OC  inactive
37  Cc1nnsc1C(=O)Nc1cccc(-c2ccc(-c3nc4ccccc4[nH]3)cc2)c1  inactive
38  COc1cc(Nc2nccc(N3CCC(NC(=O)C4COc5ccccc5O4)C3)n2)cc(OC)c1OC (centres undefined)  inactive
